// data source = ChEMBL document CHEMBL1154112

target: D(2) dopamine receptor (Homo sapiens); assay: Binding affinity to human cloned dopamine D2-short expressed in CHO cells; type: cell-based
Sequence (P14416 whole entry): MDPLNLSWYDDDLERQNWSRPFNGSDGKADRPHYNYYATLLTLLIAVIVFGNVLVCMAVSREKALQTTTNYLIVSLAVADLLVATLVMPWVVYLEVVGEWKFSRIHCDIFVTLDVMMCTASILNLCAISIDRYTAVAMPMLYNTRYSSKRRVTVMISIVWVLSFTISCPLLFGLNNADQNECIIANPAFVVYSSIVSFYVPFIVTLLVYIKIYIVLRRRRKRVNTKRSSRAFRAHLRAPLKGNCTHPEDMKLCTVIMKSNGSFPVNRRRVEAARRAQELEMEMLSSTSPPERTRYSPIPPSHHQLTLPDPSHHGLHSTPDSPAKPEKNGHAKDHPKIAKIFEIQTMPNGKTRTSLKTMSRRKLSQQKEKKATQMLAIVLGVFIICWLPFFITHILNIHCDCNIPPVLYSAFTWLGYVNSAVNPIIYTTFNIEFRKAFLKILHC
pKi: −log10 of the molar value.
Returns one of t or f; t when pKi is >= 7.

The following molecules have reported results that may help.
[
  {
    "SMI": "O=C(NCCCCN1CCN(c2cccc(Cl)c2Cl)CC1)c1cn(-c2ccc([N+](=O)[O-])cc2)nn1",
    "CATEGORY": "t"
  },
  {
    "SMI": "COc1ccc(-n2cc(CCCC(=O)NCCCCN3CCN(c4cccc(Cl)c4Cl)CC3)nn2)cc1",
    "CATEGORY": "t"
  },
  {
    "SMI": "O=C(CCCc1cn(-c2ccc([N+](=O)[O-])cc2)nn1)NCCCCN1CCN(c2cccc(Cl)c2Cl)CC1",
    "CATEGORY": "t"
  }
]

We next turn to a different molecule, shown below.
Assess whether reported pKi for COc1ccccc1N1CCN(CCNC(=O)c2cn(-c3ccc([N+](=O)[O-])cc3)nn2)CC1 sits at 7 or higher.
f
